tested on: primary human fibroblasts derived from IPF patients (LL29 cells); assay: Inhibition of the fibrotic process: αSMA staining in TGF-β1 treated LL29 fibroblasts; format: cell-based; settings: Homo sapiens, Fibroblast, 96 h, TGF-β1 20 ng/mL, 4 days, % αSMA positive cells
measurementKind: EC50
// return the numeric value with its unit appended

# sampleSmiles, EC50
measured = [
    ("CC(C)Nc1cncc(-c2cnc3[nH]nc(-c4cc5c(-c6cc(F)cc(NCCN(C)C)c6)cccc5[nH]4)c3c2)c1", "1440 nM"),
]

Dear reader, for each entry below, please note its EC50.
1. CC(C)Nc1cncc(-c2cnc3[nH]nc(-c4cc5c(-c6cccnc6)cccc5[nH]4)c3c2)c1
2. O=C(Nc1cncc(-c2cnc3[nH]nc(-c4cc5c(-c6ccc(F)cc6)cccc5[nH]4)c3c2)c1)C1CCC1
3. CN(C)CCNc1cc(F)cc(-c2cccc3[nH]c(-c4n[nH]c5ncc(-c6cncc(NC(=O)C7CCC7)c6)cc45)cc23)c1

Solution:
1410 nM
1160 nM
990 nM

---

Would you kindly list pEC50 for each of these molecules?
Test system: IL-6
Test: IL-6 inhibition in LPS-stimulated THP-1 monocytes (HTRF)
Type: cell-based, human
Details: Homo sapiens; THP-1 cells, 500 ng/mL LPS, 22 h, HTRF IL-6 readout; 10-point dose-response from 10 μM
Description: Human monocyte cell line (THP-1 cells; Catalog # TIB-202, ATCC, Manassas, Va.) were cultured in Roswell Park Memorial Institute (RPMI) 1640 Medium (Catalog #21870-100, Buffalo, N.Y.) with 1% L-glutamine, 1% HEPES, 1% Sodium Pyruvate, 2% Sodium Bicarbonate supplemented with 100 units/mL penicillin, 50 μg/mL streptomycin, 2-mercaptoethanol (0.05 mM) [basal medium] and 10% fetal bovine serum (Catalog #16140089, Life Technologies, Carlsbad, Calif.) at 37° C. and 5% CO2. […]
Answers are plain numbers, as −log10 of the molar value.

Below: 6 molecules and their reported pEC50.
# molecule, pEC50
rows = [
    ("CC(C)CC(=O)Nc1cncc(-c2cnc3[nH]nc(-c4cc5c(-c6cc(F)cc(NCCN(C)C)c6)cccc5[nH]4)c3c2)c1 [Compound 424]", 6.18),
    ("CN(C)CCNc1cc(F)cc(-c2cccc3[nH]c(-c4n[nH]c5ncc(-c6cncc(OC7CCCCC7)c6)cc45)cc23)c1 [Compound 785]", 5.74),
    ("c1ccc(-c2cccc3[nH]c(-c4n[nH]c5ncc(-c6cncc(CN7CCCC7)c6)cc45)cc23)nc1 [Compound 131]", 5.95),
    ("CS(=O)(=O)NCc1cc(F)cc(-c2cccc3[nH]c(-c4n[nH]c5ncc(-c6ccccn6)cc45)cc23)c1 [Compound 478]", 6.16),
    ("CCCCC(=O)Nc1cncc(-c2cnc3[nH]nc(-c4cc5c(-c6ccccn6)cccc5[nH]4)c3c2)c1 [Compound 136]", 5.72),
    ("Nc1cncc(-c2cnc3[nH]nc(-c4cc5c(N6CCCCC6)cccc5[nH]4)c3c2)c1 [Compound 147]", 6.67),
]

Dear reader, for each entry below, please note its pEC50.
1. FC1(F)CCN(Cc2cncc(-c3cnc4[nH]nc(-c5cc6c(-c7ccncc7)cccc6[nH]5)c4c3)c2)C1 [Compound 118]
2. Oc1cncc(-c2cnc3[nH]nc(-c4cc5c(-c6cccs6)cccc5[nH]4)c3c2)c1 [Compound 711]
3. CN(C)Cc1cncc(-c2cnc3[nH]nc(-c4cc5c(-c6cccc(F)c6)cccc5[nH]4)c3c2)c1 [Compound 10]
4. CCCC(=O)Nc1cncc(-c2cnc3[nH]nc(-c4cc5ccccc5[nH]4)c3c2)c1 [Compound 243]
5. Fc1ccc(-c2cccc3[nH]c(-c4n[nH]c5ncc(-c6cncc(CN7CCCC7)c6)cc45)cc23)cc1 [Compound 35]
6. CC(C)Nc1cncc(-c2cnc3[nH]nc(-c4cc5c(N6CCN(C)CC6)cccc5[nH]4)c3c2)c1 [Compound 212]
7. CC(C)C(=O)Nc1cncc(-c2cnc3[nH]nc(-c4cc5c(N6CCN(C)CC6)cccc5[nH]4)c3c2)c1 [Compound 209]

Solution:
1. 6.22
2. 5.71
3. 5.81
4. 5.68
5. 6.67
6. 6.76
7. 5.92

Problem: Using known records, supply pEC50 for CS(=O)(=O)NCc1cc(F)cc(-c2cccc3[nH]c(-c4n[nH]c5ncc(-c6cncc(N)c6)cc45)cc23)c1 [Compound 453]
Solution: 6.80
